# SYSTEM TESTED: T1, human TNFR2 on the surface of CHO-TNFR2 cells (human, UniProt P20333 23-461)
# T1 construct: whole, on cells
# T1 sequence (looked up): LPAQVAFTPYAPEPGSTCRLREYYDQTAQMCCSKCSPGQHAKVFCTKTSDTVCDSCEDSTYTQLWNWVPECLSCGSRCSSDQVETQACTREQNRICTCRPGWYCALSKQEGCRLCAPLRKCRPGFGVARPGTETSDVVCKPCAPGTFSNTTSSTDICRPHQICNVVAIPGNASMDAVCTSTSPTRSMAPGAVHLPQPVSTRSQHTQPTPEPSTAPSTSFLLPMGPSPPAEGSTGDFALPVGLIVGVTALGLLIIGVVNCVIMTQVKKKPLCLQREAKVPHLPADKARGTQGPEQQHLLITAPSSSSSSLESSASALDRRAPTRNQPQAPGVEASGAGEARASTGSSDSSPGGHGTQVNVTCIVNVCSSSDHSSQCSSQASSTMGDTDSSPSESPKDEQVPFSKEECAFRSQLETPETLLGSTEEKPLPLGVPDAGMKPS
# ASSAY PROTOCOL: flow cytometry on CHO-TNFR2 cells
# Protocol: The transfected full-length plasmid of human TNFR2 was purchased from Sino Biological (Cat #HG10417-UT, NCBI Ref Seq: NM_001066.2). The experiment was conducted at a cell density within 80%. […] After the staining, similarly, the cells were washed twice with the staining buffer; finally, the cells were resuspended in 200 μl of staining buffer; signals were detected by a flow cytometer (Thermo Attune NxT). […]
PROPERTY: EC50 (ng/mL)
Quick note: give the figure in ng/mL, leave out the unit.

BINDER	READING UNIT	NUMBER
224-Hu4 (antibody, V domains shown, Humanized form of #224; also called VH9 + VL6) VH: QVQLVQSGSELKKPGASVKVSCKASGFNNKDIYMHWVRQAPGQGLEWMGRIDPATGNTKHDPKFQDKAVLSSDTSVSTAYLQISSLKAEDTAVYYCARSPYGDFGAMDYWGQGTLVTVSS VL: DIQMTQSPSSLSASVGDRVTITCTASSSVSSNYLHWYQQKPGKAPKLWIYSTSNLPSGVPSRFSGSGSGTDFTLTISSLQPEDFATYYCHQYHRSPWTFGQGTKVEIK	ng/mL	0.03
001-Hu1 (antibody, V domains shown, Humanized form of #001; also called VH1 + VL1) VH: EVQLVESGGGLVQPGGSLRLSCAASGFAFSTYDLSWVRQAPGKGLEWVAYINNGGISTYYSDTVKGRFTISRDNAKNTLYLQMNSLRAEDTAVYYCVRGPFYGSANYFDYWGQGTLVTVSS VL: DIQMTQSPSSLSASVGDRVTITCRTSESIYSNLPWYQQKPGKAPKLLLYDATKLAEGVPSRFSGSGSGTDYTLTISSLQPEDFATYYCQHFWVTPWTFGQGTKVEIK	ng/mL	0.045

For the binder shown here, 224-Hu6 (antibody, V domains shown, Humanized form of #224; also called VH8 + VL7) VH: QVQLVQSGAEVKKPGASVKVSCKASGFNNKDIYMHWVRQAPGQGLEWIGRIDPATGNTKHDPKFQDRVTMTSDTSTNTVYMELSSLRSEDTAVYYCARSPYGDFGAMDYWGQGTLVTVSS VL: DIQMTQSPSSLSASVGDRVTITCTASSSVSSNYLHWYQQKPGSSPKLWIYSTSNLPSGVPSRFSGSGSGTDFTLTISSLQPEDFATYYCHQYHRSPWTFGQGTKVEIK , give the reported EC50. 0.03
